Values compiled from patent US9353082B2.

# target: FAAH (Rattus norvegicus)
# Construct: Frozen brains (without cerebellum) from Wistar rats were used; from tissue; host or cells: Wistar rat brain (without cerebellum), washed membrane pellets
# assay-explanation: In vitro FAAH activity in rat brain membranes, 3H-AEA substrate, % of control
# Format: biochemical, Wistar rats
# condition-notes: 100 nM test compound, low value = strong inhibitor
readout-type: In Vitro FAAH activity, 100 nM

Worked cases, In Vitro FAAH activity, 100 nM given:
O=C(N1CCCCCCC1)n1nnc2ccccc21 [Compound 171]
15.2 % of control
CC1(C)COCN1C(=O)n1cnc(-c2cccs2)n1 [Compound 213]
105.6 % of control
O=C(N1CCOCC1)n1nnc2ccccc21 [Compound 19]
3.1 % of control

Moving on to another compound below.
Ask: Given the entry NC(=O)c1ccc(Oc2ccc(-c3ncn(C(=O)N4CCN(c5ccccc5)CC4)n3)cc2)cc1 [Compound 148] , report its measured In Vitro FAAH activity, 100 nM.
Reply: 0.3 % of control

----------
# target: FAAH (Mus musculus, UniProt O08914)
# Construct: A fragment of liver, left lung lobe and brain without cerebellum were removed; from tissue; host or cells: male NMRI mice; brain (without cerebellum) and liver homogenates
# assay-explanation: In vivo FAAH inhibition after oral dosing, remaining activity in brain homogenate (BRh, central nervous tissue)
# Design: species or system NMRI mice
# condition-notes: brain homogenate, 3 mg/kg, 8 h after dosing; low value = strong inhibitor
Entries and their In Vivo BRh 3 mg·kg 8 h (remaining FAAH activity, % of control) values follow.

COc1ccc(-c2cn(C(=O)N(C)C3CCCCC3)cn2)cc1F
84.3 % of control

Ask: Reported In Vivo BRh 3 mg·kg 8 h (remaining FAAH activity, % of control) for FAAH (Mus musculus, UniProt O08914), given CN(C(=O)n1cnc(-c2cccc(C(=O)NO)c2)c1)C1CCN(Cc2ccccc2)CC1 ?
Reply: 90 % of control

Ask: Reported In Vivo BRh 3 mg·kg 8 h (remaining FAAH activity, % of control) for FAAH (Mus musculus, UniProt O08914), given CC1(C)COCN1C(=O)n1nnc2cc(Cl)ccc21 ?
Reply: 2.5 % of control

Ask: Reported In Vivo BRh 3 mg·kg 8 h (remaining FAAH activity, % of control) for FAAH (Mus musculus, UniProt O08914), given COc1ccc(-c2cn(C(=O)N(C)C3CCCCC3)cn2)cc1NS(C)(=O)=O ?
Reply: 92.1 % of control

----------
Entries and their In Vitro FAAH activity, 100 nM values follow.
# target: FAAH (Rattus norvegicus)
# Construct: Frozen brains (without cerebellum) from Wistar rats were used; from tissue; host or cells: Wistar rat brain (without cerebellum), washed membrane pellets
# Sequence (P97612 1-579): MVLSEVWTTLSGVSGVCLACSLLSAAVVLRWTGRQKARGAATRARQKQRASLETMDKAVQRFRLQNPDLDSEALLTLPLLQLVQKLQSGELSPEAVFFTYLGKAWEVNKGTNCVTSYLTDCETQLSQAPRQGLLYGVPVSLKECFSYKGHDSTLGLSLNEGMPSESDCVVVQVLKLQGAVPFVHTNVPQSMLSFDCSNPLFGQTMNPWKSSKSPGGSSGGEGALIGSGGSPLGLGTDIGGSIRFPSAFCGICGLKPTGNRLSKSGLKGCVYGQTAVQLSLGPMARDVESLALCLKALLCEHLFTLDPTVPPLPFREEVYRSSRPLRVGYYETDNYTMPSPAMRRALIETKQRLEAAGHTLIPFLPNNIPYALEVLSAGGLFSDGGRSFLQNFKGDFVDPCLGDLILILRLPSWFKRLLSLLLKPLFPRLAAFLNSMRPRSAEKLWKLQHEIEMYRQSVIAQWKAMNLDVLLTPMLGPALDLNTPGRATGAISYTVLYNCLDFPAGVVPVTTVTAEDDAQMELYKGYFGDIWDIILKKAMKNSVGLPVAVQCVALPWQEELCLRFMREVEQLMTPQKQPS
# assay-explanation: In vitro FAAH activity in rat brain membranes, 3H-AEA substrate, % of control
# Type: biochemical, Wistar rats
# condition-notes: 100 nM test compound, low value = strong inhibitor

O=C(N1CCC(OCc2ccccc2)CC1)n1nnc2ccccc21
0 % of control
O=C(N1CCN(c2ccc(O)cc2)CC1)n1nnc2ccccc21
0.2 % of control
C[C@@H]1CCC[C@H](C)N1C(=O)n1cnc(-c2ccccc2)c1
105.8 % of control
CON(C)C(=O)n1nnc2ccccc21
73.6 % of control
CC1(C)COCN1C(=O)n1cnc(-c2ccc(Cl)cc2)n1
98.5 % of control

Ask: Given the entry O=C(N1CCC(Oc2ccccc2)CC1)n1nnc2ccccc21 , report its measured In Vitro FAAH activity, 100 nM.
Reply: 0.1 % of control

Ask: Given the entry CC1OCCN1C(=O)n1cnc(-c2ccccc2)c1 (stereo not drawn) , report its measured In Vitro FAAH activity, 100 nM.
Reply: 64.7 % of control

Ask: Given the entry COc1cc(-c2cn(C(=O)N3COCC3(C)C)cn2)ccc1OCc1ccccc1 , report its measured In Vitro FAAH activity, 100 nM.
Reply: 79 % of control

Ask: Given the entry O=C(N1CCOCC1)n1cnc(-c2ccc(F)cc2F)n1 , report its measured In Vitro FAAH activity, 100 nM.
Reply: 81.9 % of control

Ask: Given the entry COc1ccc(-c2cn(C(=O)N(C)c3ccccc3)cn2)cc1 , report its measured In Vitro FAAH activity, 100 nM.
Reply: 85.1 % of control

Ask: Given the entry O=C(N1CCc2ccccc2C1)n1nnc2ccccc21 , report its measured In Vitro FAAH activity, 100 nM.
Reply: 0 % of control

Ask: Given the entry CN(C(=O)n1nnc2cc(-c3cccc(C#N)c3)ccc21)C1CCCCC1 , report its measured In Vitro FAAH activity, 100 nM.
Reply: 0.7 % of control

Ask: Given the entry CCCCN(C)C(=O)n1nnc2ccccc21 , report its measured In Vitro FAAH activity, 100 nM.
Reply: 0 % of control

Ask: Given the entry O=C(N1CCCc2ccccc21)n1cnc(-c2ccc(F)cc2)c1 , report its measured In Vitro FAAH activity, 100 nM.
Reply: 97.8 % of control

Ask: Given the entry Cc1ccc(OC2CCN(C(=O)n3nnc4ccccc43)CC2)cc1 , report its measured In Vitro FAAH activity, 100 nM.
Reply: 0.2 % of control

----------
# target: FAAH (Mus musculus)
# Construct: A fragment of liver, left lung lobe and brain without cerebellum were removed; from tissue; host or cells: male NMRI mice; brain (without cerebellum) and liver homogenates
# Sequence (O08914 1-579): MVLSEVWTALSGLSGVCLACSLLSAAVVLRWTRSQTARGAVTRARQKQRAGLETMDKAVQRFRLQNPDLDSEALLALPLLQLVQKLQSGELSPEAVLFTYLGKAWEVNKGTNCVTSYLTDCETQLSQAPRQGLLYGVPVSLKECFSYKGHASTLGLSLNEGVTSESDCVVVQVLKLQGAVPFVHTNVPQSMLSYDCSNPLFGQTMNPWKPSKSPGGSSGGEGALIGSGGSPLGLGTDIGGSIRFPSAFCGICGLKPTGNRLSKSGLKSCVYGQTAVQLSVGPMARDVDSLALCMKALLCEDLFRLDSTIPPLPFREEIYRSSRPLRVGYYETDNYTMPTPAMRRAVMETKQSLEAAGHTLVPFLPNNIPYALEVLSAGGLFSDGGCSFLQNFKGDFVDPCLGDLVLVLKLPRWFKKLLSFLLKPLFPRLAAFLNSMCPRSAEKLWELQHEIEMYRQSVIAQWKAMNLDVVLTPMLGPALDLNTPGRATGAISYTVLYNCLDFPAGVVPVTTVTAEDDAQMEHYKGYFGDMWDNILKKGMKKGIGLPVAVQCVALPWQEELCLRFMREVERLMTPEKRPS
# assay-explanation: In vivo FAAH inhibition after oral dosing, remaining activity in liver homogenate (LVh, peripheral tissue)
# Set-up: species or system NMRI mice
# condition-notes: liver homogenate, 3 mg/kg, 8 h
readout-type: In Vivo LVh 3 mg/kg 8 h, remaining FAAH activity

CN(Cc1ccccc1)C(=O)n1cnc(-c2cccc3ccccc23)n1
20.8 % of control
CC1(C)COCN1C(=O)n1nnc2ccccc21
2.5 % of control
CN(C(=O)n1cnc(-c2cccc(-c3cccc(OC(F)(F)F)c3)c2)c1)C1CCCCC1
57 % of control
CN(C(=O)n1cnc(-c2ccc(F)c(F)c2)c1)C1CCCCC1
7.1 % of control
O=C(N1CCS(=O)(=O)C1)n1nnc2ccccc21
104 % of control
Cc1c(-c2ccccc2)ncn1C(=O)N(C)Cc1ccccc1
76.6 % of control

Moving on to another molecule below.
Ask: Given the entry CCC1(C)OCCN1C(=O)n1cnc(-c2ccc(Cl)cc2)c1 (stereo not shown) , report its measured In Vivo LVh 3 mg/kg 8 h, remaining FAAH activity.
Reply: 21.1 % of control
